tested on: IGROV1 ovarian; test: NCI tumour cell line growth inhibition, 48 h; in the data active = GI50 below about 0.43 µM; inactive = the rest
Hi! Could you answer with just one of these? active, inactive

COc1cc(OC)cc(-c2n/c(=C\c3c(O)[nH]c4ccc(Cl)cc34)cc3c2=Nc2ccccc2-3)c1
inactive
N.N.N.N.N.O=S(=O)([O-])C(F)(F)F.O=S(=O)([O-])C(F)(F)F.[Os+8]
inactive
COc1ccc2c(c1)C(=O)c1c-2n(CCCN)c(=O)c2cc([N+](=O)[O-])ccc12
active
Nc1ncccc1-c1nc2ccc(-c3ccccc3)nc2n1-c1ccc(C2(N)CCC2)cc1
active
CCOC(=O)C1=C(C)N2C(=NC3=C(CCC/C3=C\c3ccc(Cl)cc3)C2c2ccc(Cl)cc2)S1 (stereo not given)
inactive

How was NS(=O)(=O)c1cccc(-c2ccc3c(NC(=O)C4CC4)n[nH]c3c2)c1 classified in this test?
inactive

How did this test come out for COc1cccc(C2C(C#N)=C(N)Oc3c2ccc2ccccc32)c1 (stereo not given) ?
active

How was O=c1c(-c2ccccc2)coc2cc(OC/C(=N/O)c3ccc(F)cc3)ccc12 classified in this test?
inactive

----------
tested on: UO-31 renal; experiment: NCI tumour cell line growth inhibition, 48 h
endpoint: GI50

// solved cases for GI50 follow
CN(c1ccc(C#N)c(Cl)c1)C1CCC(NC(=O)c2ccc(N3CCN(C4CN(c5ccc6c(c5)C(=O)N(C5CCC(=O)NC5=O)C6=O)C4)CC3)cc2)CC1 (stereo not given)
> 100000 nM
O=C1CSC(c2ccccc2O)N1c1nnc(Cn2ccnc2)o1 (stereo not given)
4350 nM
COc1ccc2c(c1)C(=O)c1c-2c(N2CCNCC2)nc2ccccc12
2290 nM
N/C(=N\c1nc2ccccc2s1)NC(=NC1CCCCC1)NC1CCCCC1
1270 nM

// next item, GI50 requested
Item under review: O=C1/C(=C/c2cccc(Br)c2)COc2ccc(O)c(O)c21 . Reported GI50?
958 nM

----------
test system: OVCAR-8 ovarian; assay: NCI tumour cell line growth inhibition, 48 h
GI50 reference

Could you tell me which GI50 is on file for CCC[CH2][Sn]([CH2]CCC)([O]C(=O)/C=C/c1ccccc1F)[O]C(=O)/C=C/c1ccccc1F ?
0.98 µM

Fill in: GI50 of C=C1CC[C@@H]2[C@](C)(COC(C)=O)[C@H](OC(C)=O)CC[C@@]2(C)[C@@H]1CC(Nc1ccc(S(=O)(=O)Nc2nccs2)cc1)C1=CCOC1=O (stereo partly drawn) is ___
3.14 µM

What does the record list as GI50 for CCSc1nc(N)c(C#N)c(-c2ccco2)c1C#N ?
53.6 µM

----------
Recorded below: GI50, system MDA-MB-435.

COc1cc(/C=C/[N+](=O)[O-])cc(OC)c1OC
2.8 µM
Cc1c2ccncc2c(C)c2c1c1cc(CO)ccc1n2C
0.467 µM
COc1ccc2c(c1)C(=O)c1c-2n(CCCN)c(=O)c2cc([N+](=O)[O-])ccc12
3.3 µM

# get_value(readout='GI50', item= COc1ccc2c(c1)C(=O)c1c-2c(N2CCNCC2)nc2ccccc12 )
4.93 µM

Would you kindly share the measured GI50 for O=c1c(-c2ccccc2)coc2cc(OC/C(=N/O)c3ccc(F)cc3)ccc12 ?
20.9 µM

Which GI50 reading was recorded for the molecule OCc1ccc(N2CCCC2)cc1Cl ?
> 100 µM

----------
In this section we review reported TGI values for a set of molecules.
test system: HL-60(TB) leukemia; experiment: NCI tumour cell line growth inhibition, 48 h
Provide only the numeric value, understood in µM.

Consider the following illustrative entries.
CCCCc1ccc(-n2sc3ncccc3c2=O)cc1
6.07
O=C(Nc1cnc(C(F)(F)F)cn1)c1cc(Cl)ccc1O
0.654
COc1ccc2c(c1)C(=O)c1c-2c(N2CCNCC2)nc2ccccc12
5.16
O=c1c(-c2ccccc2)coc2cc(OC/C(=N/O)c3ccc(F)cc3)ccc12
89.7
CCn1c2ccc(O)c(C(=O)OC)c2c2cc3ccccc3c(O)c21
60

Report TGI for C[C@H]1c2ccccc2CN1CCCOc1cc2c(cc1OCC1CC1)C1(CCCC1)C(N)=N2 tested on HL-60(TB) leukemia.
3.16

Request - read-out TGI | tested on HL-60(TB) leukemia | molecule COc1ccc(Oc2ccccc2NC(=O)CNC(=O)c2cccc3ccccc23)cc1
1.71

Return TGI measured with HL-60(TB) leukemia given this molecule: N/C(=N\c1nc2ccccc2s1)NC(=NC1CCCCC1)NC1CCCCC1
4.35

Lab note: need TGI for Cc1oc2c(c1C(=O)N1CC[C@@H](N)C1)C(=O)c1c(c(O)c3ccccc3c1O)C2=O on HL-60(TB) leukemia, anyone have it?
4.31

----------
// values below are reported TGI
tested on: SW-620 colon; test: NCI tumour cell line growth inhibition, 48 h
Use µM as the unit, but write only the number.

Look up TGI for this molecule: COc1cccc(C2C(C#N)=C(N)Oc3c2ccc2ccccc32)c1 (stereo not given)
17.8

----------
Documented GI50 across a set of compounds
system: ACHN renal; experiment: NCI tumour cell line growth inhibition, 48 h

Reference set, count: 5
C=C1CC[C@@H]2[C@](C)(COC(C)=O)[C@H](OC(C)=O)CC[C@@]2(C)[C@@H]1CC(Nc1ccc(S(=O)(=O)Nc2nccs2)cc1)C1=CCOC1=O (stereo not given in full)
5990 nM
Nc1ncccc1-c1nc2ccc(-c3ccccc3)nc2n1-c1ccc(C2(N)CCC2)cc1
1140 nM
NS(=O)(=O)c1cccc(-c2ccc3c(NC(=O)C4CC4)n[nH]c3c2)c1
> 25000 nM
CCOC(=O)C1=C(C)N2C(=NC3=C(CCC/C3=C\c3ccc(Cl)cc3)C2c2ccc(Cl)cc2)S1 (stereo not given)
3640 nM
O=C(Nc1cnc(C(F)(F)F)cn1)c1cc(Cl)ccc1O
269 nM

# lookup: GI50 of CCC[CH2][Sn]([CH2]CCC)([O]C(=O)/C=C/c1ccccc1F)[O]C(=O)/C=C/c1ccccc1F
797 nM

Given the compound COc1cc(/C=C/[N+](=O)[O-])cc(OC)c1OC , what is its reported GI50?
1830 nM

// lookup GI50 for COc1cccc(CC(C)=C(c2ccc(OCCCN(C)C)cc2)c2ccc(OCCCN(C)C)cc2)c1
501 nM

Item CC(=O)O.CC(=O)O.CC(=O)O.CC(=O)O.[Rh].[Rh] has what recorded GI50?
24900 nM

Given the entry CC(=O)[CH-]C(=O)Nc1ccccc1.CC(=O)[CH-]C(=O)Nc1ccccc1.CC[O-].CC[O-].[Ti+4] , report its measured GI50.
> 100000 nM

----------
system: MALME-3M melanoma; assay: NCI tumour cell line growth inhibition, 48 h; in the data active = GI50 below about 0.43 µM; inactive = the rest
Select the matching outcome among active, inactive

Known results for molecules:
CCN1C(=O)N(CC)C2C1NN=c1s/c(=C\c3ccc[nH]3)c(=O)n12 (centres undefined)
inactive
COc1ccc(Oc2ccccc2NC(=O)CNC(=O)c2cccc3ccccc23)cc1
inactive
COc1cccc(CC(C)=C(c2ccc(OCCCN(C)C)cc2)c2ccc(OCCCN(C)C)cc2)c1
active

Moving on to the next molecule.
Would you mind telling me which call this test gave COc1ccc2c(c1)C(=O)c1c-2c(N2CCNCC2)nc2ccccc12 ?
inactive

----------
test system: TK-10 renal; assay: NCI tumour cell line growth inhibition, 48 h
endpoint: TGI

Cc1cc(NC(=O)c2cnc(N3CCN(CCOCCOCCOCCOCCC(=O)N[C@H](C(=O)N4C[C@H](O)C[C@H]4C(=O)N[C@@H](C)c4ccc(-c5scnc5C)cc4)C(C)(C)C)CC3)cn2)c2ncccc2c1
53.4 µM
Cc1cc(O)ccc1C1(c2ccc(F)cc2)OC(=O)c2ccccc21 (stereo not given)
15.5 µM
COc1ccc(Cc2nc3ccccc3s2)cc1OC
84.7 µM
Oc1nc(N/N=C/c2ccccc2)[nH]c1/C=C1\C=Nc2ccccc21
> 100 µM
Cc1ccc(NC(=O)CC2SC(N)=NC2=O)cc1C (stereo not given)
> 100 µM
N/C(=N\c1nc2ccccc2s1)NC(=NC1CCCCC1)NC1CCCCC1
3.28 µM
N#CC(C#N)=C(N)/C(C#N)=C/c1ccc2[nH]ccc2c1
> 100 µM
COC/N=C(/N)NC#N
> 100 µM

Which value of TGI has been reported for CSCCCNC(=O)c1csc(-c2csc(CCNC(=O)CNC(=O)CNC(=O)CNC(=O)OC(C)(C)C)n2)n1 in the records?
> 100 µM

Given CN(/N=N/c1nc[nH]c1C(N)=O)C1CCCCC1 , state its recorded TGI.
> 100 µM

----------
We begin with a simple list: items and their reported TGI.
test system: SF-268 CNS; assay: NCI tumour cell line growth inhibition, 48 h

Sample answers from the record:
COc1cc2c(c(OC)c1OC)-c1c(cc3c(c1OC)OCO3)CC(C)C(C)(O)C2OC(=O)c1ccccc1 (centres undefined)
> 100 µM
CC(C)=Nn1cnc(C(=N)C#N)c1N
> 100 µM
Cc1occ2c1C(=O)CC1C2[C@@H](O)CC2C(C)(C)CCC[C@]12C (some centres undefined)
> 100 µM

Any idea what TGI was measured for Cc1nn(C)c2nc3ccc(Cl)cc3c(-c3ccccc3)c12 ?
> 100 µM
